Where these numbers come from: patent US20110135636A1

- assay-target: T1, recombinant human EGFR extracellular domain with 6xHis (human, UniProt P00533 25-645)
- T1 construct: In-house produced; also called 6xHis EGFR ECD; soluble human EGFR ECD; not shown: 6xHis tag
- assay-text: SPR competition, competitor ICR10
Measured % inhibition of individual entries
Numeric answer only, unit % assumed.

binder	% inhibition [%]
antibody 1042 (antibody, human IgG1, kappa, V domains shown, Chimeric IgG1 kappa; RA- left out of the VH entry) VH: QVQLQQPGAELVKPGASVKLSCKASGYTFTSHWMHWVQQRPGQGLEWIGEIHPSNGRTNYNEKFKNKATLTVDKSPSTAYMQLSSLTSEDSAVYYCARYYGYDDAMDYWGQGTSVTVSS VL: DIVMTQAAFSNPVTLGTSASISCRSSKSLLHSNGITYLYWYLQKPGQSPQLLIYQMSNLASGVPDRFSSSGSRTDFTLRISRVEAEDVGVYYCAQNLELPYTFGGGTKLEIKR	-6

Please report the measured % inhibition for antibody 992 (antibody, human IgG1, kappa, V domains shown, Chimeric mouse/human IgG1 kappa; the VL entry includes the human kappa constant region) VH: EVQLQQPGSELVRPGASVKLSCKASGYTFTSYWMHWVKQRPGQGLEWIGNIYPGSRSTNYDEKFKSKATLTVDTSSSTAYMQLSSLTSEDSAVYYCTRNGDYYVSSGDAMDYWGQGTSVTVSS VL: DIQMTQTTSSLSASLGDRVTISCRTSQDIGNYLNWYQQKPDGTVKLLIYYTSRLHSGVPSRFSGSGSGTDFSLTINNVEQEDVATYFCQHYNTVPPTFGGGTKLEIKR
-4
